System: biotinyl-Val-oxazolone
MEASUREMENT PROTOCOL: self-aminoacylation, catalytic enhancement (BVO) (fold over background); higher = more active; k-Seq, kA / k0A0; sequences stand for … in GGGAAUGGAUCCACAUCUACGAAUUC…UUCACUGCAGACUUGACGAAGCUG
Fewer inactive variants are shown than the library holds.
Entries annotated with measured self-aminoacylation
OBSERVATION TYPE: self-aminoacylation

primary_sequence="AUUGACCUAGAUCAUCGGGUG [Fam2.2 aminoacylation ribozyme variant]" measurement=2.54
primary_sequence="AUUCACCCAGGUCACCGGGUG [Fam2.2 aminoacylation ribozyme variant]" measurement=3.77
primary_sequence="AAUCCCCUGGUCAUCGAGUGA [Fam2.1 aminoacylation ribozyme variant]" measurement=3.96
primary_sequence="AUUCACAUCGGUCAUCGGGUG [Fam2.2 aminoacylation ribozyme variant]" measurement=4.81
primary_sequence="CCACACUUCAUGCAACCGGUC [Fam1B.1 aminoacylation ribozyme variant]" measurement=0.981
primary_sequence="CUACUACAUACAAUCGGUCUG [Fam1A.1 aminoacylation ribozyme variant]" measurement=0.782
primary_sequence="AUUCACCUAGGGCAUCGGGUU [Fam2.2 aminoacylation ribozyme variant]" measurement=2.01
